Assay: Pharmacokinetics after oral administration, Balb/c mice
Assay type: in vivo
Conditions: mouse, plasma, 10 mg/kg
Method: 4. […] Blood was sampled before the administration and at 0.25 h, 0.5 h, 1 h, 2 h, 4 h, 6 h, 8 h, and 24 h after the administration.
property: AUC

smilesRecord: Cn1cc(-c2ccc(-c3ccc4ncc5c(c4c3)n([C@H]3CC[C@@H](O)CC3)c(=O)n5C)cn2)cn1
property: AUC
measValue: 10000 to 100000 ng·h/mL

###

Assay: Pharmacokinetics after oral administration, Balb/c mice
Assay type: in vivo
Details: mouse, plasma, 10 mg/kg, 6 h
Method: 4. […] Blood was sampled before the administration and at 0.25 h, 0.5 h, 1 h, 2 h, 4 h, 6 h, 8 h, and 24 h after the administration.
property: concentration at 6 h

smilesRecord: Cn1cc(-c2ccc(-c3ccc4ncc5c(c4c3)n([C@H]3CC[C@@H](O)CC3)c(=O)n5C)cn2)cn1
measValue: 1 to 10 µM

###

Each item that follows carries a reported pIC50.
Biological target: mTOR kinase (Homo sapiens (Human))
Sequence (P42345 1360-2549): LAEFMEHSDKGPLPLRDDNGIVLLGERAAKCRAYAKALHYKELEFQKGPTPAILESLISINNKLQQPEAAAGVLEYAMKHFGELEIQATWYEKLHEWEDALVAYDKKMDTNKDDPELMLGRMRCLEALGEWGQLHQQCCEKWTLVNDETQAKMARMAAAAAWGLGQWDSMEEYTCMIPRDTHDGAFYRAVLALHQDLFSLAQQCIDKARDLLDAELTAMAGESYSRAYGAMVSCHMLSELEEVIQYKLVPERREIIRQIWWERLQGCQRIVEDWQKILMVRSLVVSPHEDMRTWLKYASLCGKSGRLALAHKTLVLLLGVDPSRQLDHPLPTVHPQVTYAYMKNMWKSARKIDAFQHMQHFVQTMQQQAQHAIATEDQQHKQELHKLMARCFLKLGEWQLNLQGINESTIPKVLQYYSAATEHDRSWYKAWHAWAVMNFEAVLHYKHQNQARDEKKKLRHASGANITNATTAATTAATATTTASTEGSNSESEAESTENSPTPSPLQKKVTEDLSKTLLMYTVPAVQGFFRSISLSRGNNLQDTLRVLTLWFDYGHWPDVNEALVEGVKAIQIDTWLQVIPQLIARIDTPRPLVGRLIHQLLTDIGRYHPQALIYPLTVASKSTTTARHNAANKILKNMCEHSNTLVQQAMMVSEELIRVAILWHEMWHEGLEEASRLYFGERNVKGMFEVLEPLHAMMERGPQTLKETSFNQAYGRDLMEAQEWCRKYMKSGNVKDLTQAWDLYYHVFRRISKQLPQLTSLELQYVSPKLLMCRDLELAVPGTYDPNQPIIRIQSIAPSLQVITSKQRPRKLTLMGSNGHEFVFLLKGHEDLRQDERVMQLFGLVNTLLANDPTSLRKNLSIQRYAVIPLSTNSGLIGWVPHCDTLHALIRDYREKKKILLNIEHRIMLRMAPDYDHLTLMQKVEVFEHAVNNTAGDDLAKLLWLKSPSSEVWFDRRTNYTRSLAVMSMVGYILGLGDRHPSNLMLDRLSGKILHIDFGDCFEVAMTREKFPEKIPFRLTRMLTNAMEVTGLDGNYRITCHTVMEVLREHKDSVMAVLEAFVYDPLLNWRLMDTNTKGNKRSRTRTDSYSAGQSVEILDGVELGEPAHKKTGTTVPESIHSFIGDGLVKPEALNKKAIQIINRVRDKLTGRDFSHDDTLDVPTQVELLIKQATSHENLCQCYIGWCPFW
pIC50: −log10 of the molar value.

compound: Cn1cc(-c2ccc(-c3ccc4ncc5c(c4c3)n([C@@H]3CCN(S(C)(=O)=O)C3)c(=O)n5C)cn2)cn1
testedTarget: mTOR kinase (Homo sapiens (Human))
pIC50: 6.00 to 7.00
//
compound: CCN1CCC(n2c(=O)n(C)c3cnc4ccc(-c5ccc(-c6cnn(C)c6)nc5)cc4c32)C1 (centres unmarked)
testedTarget: mTOR kinase (Homo sapiens (Human))
pIC50: 6.00 to 7.00
//
compound: Cn1cc(-c2ccc(-c3ccc4ncc5c(c4c3)n(C3CCN(S(N)(=O)=O)C3)c(=O)n5C)cn2)cn1 (centres unmarked)
testedTarget: mTOR kinase (Homo sapiens (Human))
pIC50: 6.00 to 7.00
//
compound: Cn1cc(-c2ccc(-c3ccc4ncc5c(c4c3)n([C@H]3CC[C@@H](O)CC3)c(=O)n5C)cn2)cn1
testedTarget: mTOR kinase (Homo sapiens (Human))
pIC50: > 8.00
//
compound: [2H]C([2H])([2H])n1c(=O)n(C2CCCN(S(C)(=O)=O)C2)c2c3cc(-c4ccc(-c5cnn(C)c5)nc4)ccc3ncc21 (centres unmarked)
testedTarget: mTOR kinase (Homo sapiens (Human))
pIC50: > 8.00
//
compound: COc1ncc(-c2ccc3ncc4c(c3c2)n([C@H]2CC[C@@H](O)CC2)c(=O)n4C)cc1C
testedTarget: mTOR kinase (Homo sapiens (Human))
pIC50: 7.00 to 8.00
//
compound: Cn1cc(-c2ccc(-c3ccc4ncc5c(c4n3)n([C@H]3CCN(S(C)(=O)=O)C3)c(=O)n5C)cn2)cn1
testedTarget: mTOR kinase (Homo sapiens (Human))
pIC50: > 8.00
//
compound: COc1ncc(-c2ccc3ncc4c(c3c2)n([C@H]2CC[C@H](O)CC2)c(=O)n4C)cc1C
testedTarget: mTOR kinase (Homo sapiens (Human))
pIC50: 7.00 to 8.00
//
compound: CC(=O)N1CCC(n2c(=O)n(C)c3cnc4ccc(-c5ccc(-c6cnn(C)c6)nc5)cc4c32)C1 (centres unmarked)
testedTarget: mTOR kinase (Homo sapiens (Human))
pIC50: 6.00 to 7.00
//
compound: Cn1cc(-c2ccc(-c3ccc4ncc5c(c4c3)n(C3CCCC(O)C3)c(=O)n5C)cn2)cn1 (centres unmarked)
testedTarget: mTOR kinase (Homo sapiens (Human))
pIC50: > 8.00
//
compound: Cn1cc(-c2ccc(-c3ccc4ncc5c(c4c3)n(C3CCN(S(C)(=O)=O)C3)c(=O)n5C)cn2)cn1 (centres unmarked)
testedTarget: mTOR kinase (Homo sapiens (Human))
pIC50: > 8.00
//
compound: Cc1ccc(S(=O)(=O)N2CCC(n3c(=O)n(C)c4cnc5ccc(-c6ccc(-c7cnn(C)c7)nc6)cc5c43)C2)cc1 (centres unmarked)
testedTarget: mTOR kinase (Homo sapiens (Human))
pIC50: 6.00 to 7.00
//
compound: Cn1c(=O)n([C@H]2CCN(S(C)(=O)=O)C2)c2c3nc(-c4ccc(-c5ccccc5)nc4)ccc3ncc21
testedTarget: mTOR kinase (Homo sapiens (Human))
pIC50: > 8.00
//
compound: Cn1cc(-c2ccc(-c3ccc4ncc5c(c4c3)n([C@H]3CC[C@H](O)CC3)c(=O)n5C)cn2)cn1
testedTarget: mTOR kinase (Homo sapiens (Human))
pIC50: > 8.00

###

Test system: MV-4-11
Test: CTG cell survival assay, MV-4-11
Type: cell-based
Details: Homo sapiens, MV4-11, MV-4-11 cells
property: EC50

compound: COc1ncc(-c2ccc3ncc4c(c3c2)n([C@H]2CC[C@H](O)CC2)c(=O)n4C)cc1C
property: EC50
measValue: < 500 nM
//
compound: Cn1cc(-c2ccc(-c3ccc4ncc5c(c4c3)n(C3CCCC(O)C3)c(=O)n5C)cn2)cn1 (stereo not drawn)
property: EC50
measValue: < 200 nM
//
compound: Cn1cc(-c2ccc(-c3ccc4ncc5c(c4c3)n([C@H]3CC[C@@H](O)CC3)c(=O)n5C)cn2)nn1
property: EC50
measValue: < 20 nM
